Where do these numbers come from? They come from paper PMC2634724.

- Assay summary: Pharmacokinetics of everolimus in whole blood (LC-MS, non-compartmental)
- Assay type: in vivo, human
- Experimental parameters: human; everolimus 15 mg oral alone; dose level 1; n=3; whole blood; median (range); read-out: tmax
Reported endpoint: Tmax (h)
Lab book: enter the figure in h, no units written.

Quick one: give measured Tmax for CO[C@H]1C[C@@H]2CC[C@@H](C)[C@@](O)(O2)C(=O)C(=O)N2CCCC[C@H]2C(=O)O[C@H]([C@H](C)C[C@@H]2CC[C@@H](OCCO)[C@H](OC)C2)CC(=O)[C@H](C)/C=C(\C)[C@@H](O)[C@@H](OC)C(=O)[C@H](C)C[C@H](C)/C=C/C=C/C=C/1C 1

====

- Assay summary: Pharmacokinetics of everolimus in whole blood (LC-MS, non-compartmental)
- Type: in vivo, human
- Experimental parameters: human, whole blood, po, 15 mg, everolimus 15 mg oral alone; dose level 1; n=3; mean (s.d.)
Reported endpoint: half-life (h)
Lab book: enter the figure in h, no units written.

Quick one: give measured half-life for CO[C@H]1C[C@@H]2CC[C@@H](C)[C@@](O)(O2)C(=O)C(=O)N2CCCC[C@H]2C(=O)O[C@H]([C@H](C)C[C@@H]2CC[C@@H](OCCO)[C@H](OC)C2)CC(=O)[C@H](C)/C=C(\C)[C@@H](O)[C@@H](OC)C(=O)[C@H](C)C[C@H](C)/C=C/C=C/C=C/1C 29.5

====

- Assay summary: Pharmacokinetics of everolimus in whole blood (LC-MS, non-compartmental)
- Format: in vivo, human
- Experimental parameters: human, whole blood, po, everolimus 30 mg oral with paclitaxel 80 mg m^−2; dose level 2; n=7; mean (s.d.)
Reported endpoint: half-life (h)
Lab book: enter the figure in h, no units written.

Quick one: give measured half-life for CO[C@H]1C[C@@H]2CC[C@@H](C)[C@@](O)(O2)C(=O)C(=O)N2CCCC[C@H]2C(=O)O[C@H]([C@H](C)C[C@@H]2CC[C@@H](OCCO)[C@H](OC)C2)CC(=O)[C@H](C)/C=C(\C)[C@@H](O)[C@@H](OC)C(=O)[C@H](C)C[C@H](C)/C=C/C=C/C=C/1C [everolimus, Everolimus] 27.4

====

- Assay summary: Pharmacokinetics of everolimus in whole blood (LC-MS, non-compartmental)
- Format: in vivo, human
- Experimental parameters: human, whole blood, po, 30 mg, everolimus 30 mg oral alone; dose level 2; n=4; mean (s.d.)
Reported endpoint: Cmax
Give me the value, and tack the unit on after it.

Quick one: give measured Cmax for CO[C@H]1C[C@@H]2CC[C@@H](C)[C@@](O)(O2)C(=O)C(=O)N2CCCC[C@H]2C(=O)O[C@H]([C@H](C)C[C@@H]2CC[C@@H](OCCO)[C@H](OC)C2)CC(=O)[C@H](C)/C=C(\C)[C@@H](O)[C@@H](OC)C(=O)[C@H](C)C[C@H](C)/C=C/C=C/C=C/1C 93 ng/mL

====

- Assay summary: Pharmacokinetics of everolimus in whole blood (LC-MS, non-compartmental)
- Type: in vivo, human
- Experimental parameters: human, whole blood, po, everolimus 15 mg oral with paclitaxel 80 mg m^−2; dose level 1; n=3; mean (s.d.)
Reported endpoint: Cmax (ng/mL)
Lab book: enter the figure in ng/mL, no units written.

Quick one: give measured Cmax for CO[C@H]1C[C@@H]2CC[C@@H](C)[C@@](O)(O2)C(=O)C(=O)N2CCCC[C@H]2C(=O)O[C@H]([C@H](C)C[C@@H]2CC[C@@H](OCCO)[C@H](OC)C2)CC(=O)[C@H](C)/C=C(\C)[C@@H](O)[C@@H](OC)C(=O)[C@H](C)C[C@H](C)/C=C/C=C/C=C/1C [everolimus, Everolimus] 57.9
